# SUBJECT OF TEST: Isocitrate dehydrogenase [NADP], mitochondrial (Homo sapiens, UniProt P48735, R172K)
# Sequence (P48735 40-452 R172K limits assumed): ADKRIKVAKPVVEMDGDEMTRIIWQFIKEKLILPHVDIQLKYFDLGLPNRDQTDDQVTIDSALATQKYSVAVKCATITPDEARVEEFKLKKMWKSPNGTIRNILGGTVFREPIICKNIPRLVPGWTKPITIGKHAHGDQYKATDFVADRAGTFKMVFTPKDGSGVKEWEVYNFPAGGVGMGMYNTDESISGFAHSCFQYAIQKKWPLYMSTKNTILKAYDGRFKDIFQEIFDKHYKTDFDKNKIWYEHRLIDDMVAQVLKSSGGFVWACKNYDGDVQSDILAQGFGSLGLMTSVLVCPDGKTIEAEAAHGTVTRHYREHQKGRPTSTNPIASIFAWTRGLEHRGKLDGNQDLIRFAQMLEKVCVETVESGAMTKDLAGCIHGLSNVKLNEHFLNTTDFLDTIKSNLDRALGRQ
# ASSAY PROCEDURE: Inhibition of IDH2 R172K mutant (unknown origin) assessed as reduction in NADPH consumption using alpha-ketoglutarate and NADPH as substrate preincubated with enzyme for 15 mins followed by substrate addition by fluorescence based assay
PROPERTY LABEL: IC50 (nM)

>>> df
                           molecular_string  numeric_result
0  FC(F)(F)c1cc2cc(c1)Nc1nc(nc(-c3cccc(C(F)(F)F)n3)n1)NCCCCCC2             219

a = FC(F)(F)c1cc2cc(c1)OCCCCCCNc1nc(nc(-c3cccc(C(F)(F)F)n3)n1)N2
b = CC(C)(O)CNc1nc(Nc2cccc(C(F)(F)F)c2)nc(-c2cccc(C(F)(F)F)n2)n1
Ask: Return label of the item with the larger IC50. Candidates: a , b . Returns: label corresponding to the selected item.
Result: b

====

# SUBJECT OF TEST: Isocitrate dehydrogenase [NADP], mitochondrial (Homo sapiens, UniProt P48735, R140Q)
# Sequence (P48735 40-452 R140Q limits assumed): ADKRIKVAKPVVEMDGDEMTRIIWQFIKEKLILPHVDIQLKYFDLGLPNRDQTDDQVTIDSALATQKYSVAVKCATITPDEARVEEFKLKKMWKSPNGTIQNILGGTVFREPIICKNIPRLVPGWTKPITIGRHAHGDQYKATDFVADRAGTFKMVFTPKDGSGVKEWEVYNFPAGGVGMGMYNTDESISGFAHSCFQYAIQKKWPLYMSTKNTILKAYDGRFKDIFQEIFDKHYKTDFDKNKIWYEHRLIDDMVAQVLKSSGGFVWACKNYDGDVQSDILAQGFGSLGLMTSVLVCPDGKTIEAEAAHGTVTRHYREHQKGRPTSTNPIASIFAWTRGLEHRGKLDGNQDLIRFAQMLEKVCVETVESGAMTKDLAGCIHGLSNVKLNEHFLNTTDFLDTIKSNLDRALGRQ
# ASSAY PROCEDURE: Inhibition of IDH2 R140Q mutant (unknown origin) assessed as reduction in NADPH consumption using alpha-ketoglutarate and NADPH as substrate preincubated with enzyme for 15 mins followed by substrate addition by fluorescence based assay
pIC50: −log10 of the molar value. Counter-ions that a name gives are not always drawn.
PROPERTY LABEL: pIC50

Example results:
                                   compound  numeric_result
0  CC(C)(O)CNc1nc(Nc2cccc(C(F)(F)F)c2)nc(-c2cccc(C(F)(F)F)n2)n1            7.59
1  FC(F)(F)c1cc2cc(c1)Nc1nc(nc(-c3cccc(C(F)(F)F)n3)n1)NCCC/C=C/C2            7.86
2  FC(F)(F)c1cc2cc(c1)OCCCCCCNc1nc(nc(-c3cccc(C(F)(F)F)n3)n1)N2            6.88

I = CC1(C)CNc2nc(nc(-c3cccc(C(F)(F)F)n3)n2)Nc2cc(cc(C(F)(F)F)c2)OCCCO1
II = FC(F)(F)c1cc2cc(c1)Nc1nc(nc(-c3cccc(C(F)(F)F)n3)n1)NCCCCCC2
Ask: Return label of the item with the larger pIC50. Candidates: I , II . Returns: label corresponding to the selected item.
Result: II

I = CC(C)(O)CNc1nc(Nc2ccnc(C(F)(F)F)c2)nc(-c2cccc(C(F)(F)F)n2)n1 [ENASIDENIB MESYLATE]
II = FC(F)(F)c1cccc(-c2nc3nc(n2)Nc2cc(Cl)cc(c2)C/C=C\COCCN3)n1
Ask: Field: lower recorded pIC50 (choose I or II ) Returns: label corresponding to the selected item.
Result: I
(I: 6.91, II: 7.44)

I = FC(F)(F)c1cccc(-c2nc3nc(n2)Nc2cc(Cl)cc(c2)CCCCOCCN3)n1
II = CC1(C)CCNc2nc(nc(-c3cccc(C(F)(F)F)n3)n2)Nc2cc(cc(C(F)(F)F)c2)CCCCO1
Ask: Field: lower recorded pIC50 (choose I or II ) Returns: label corresponding to the selected item.
Result: II

====

# SUBJECT OF TEST: Isocitrate dehydrogenase [NADP], mitochondrial (Homo sapiens, UniProt P48735, R140Q)
# ASSAY PROCEDURE: Inhibition of IDH2 R140Q mutant (unknown origin) assessed as reduction in NADPH consumption using alpha-ketoglutarate and NADPH as substrate preincubated with enzyme for 15 mins followed by substrate addition by fluorescence based assay
pIC50: −log10 of the molar value.
PROPERTY LABEL: pIC50

                           molecular_string                           subject_of_test  numeric_result
0  FC(F)(F)c1cc2cc(c1)OC/C=C\CCNc1nc(nc(-c3cccc(C(F)(F)F)n3)n1)N2  Isocitrate dehydrogenase [NADP], mitochondrial (Homo sapiens, UniProt P48735, R140Q)            7.74

A = FC(F)(F)c1cc2cc(c1)Nc1nc(nc(-c3cccc(C(F)(F)F)n3)n1)NCCOCCCC2
B = CC1(C)CNc2nc(nc(-c3cccc(C(F)(F)F)n3)n2)Nc2cc(cc(C(F)(F)F)c2)CCCCO1
C = O=C1OCCCCCNc2nc(nc(-c3cccc(C(F)(F)F)n3)n2)Nc2cc1cc(C(F)(F)F)c2
D = CC1(C)CNc2nc(nc(-c3cccc(C(F)(F)F)n3)n2)Nc2cc(cc(C(F)(F)F)c2)C/C=C\CO1
Ask: // ranking: key=pIC50, reverse=True Respond with the label ranking, as requested.
Result: B, A, C, D

meta.source: ChEMBL document CHEMBL4706511
